- Tgt: VCB: PROTAC: SMARCA2^BD ternary complex (Homo sapiens)
- Construct: P51531-2, residues 1373-1493 with additional N-terminal SM residues; GST (TEV site) (N); His6 (TEV site) (N, cleaved yes); made in house; host or cells: SMARCA2^BD: Escherichia coli BL21(DE3)
- Sequence (P51531 with tags, fused parts or gaps isoform P51531-2): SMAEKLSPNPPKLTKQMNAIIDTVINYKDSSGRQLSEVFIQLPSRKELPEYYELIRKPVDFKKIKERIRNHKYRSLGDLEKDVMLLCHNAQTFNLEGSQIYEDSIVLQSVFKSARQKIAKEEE
- Assay summary: TR-FRET ternary complex affinity and cooperativity, SMARCA2
- Format: binding
- Protocol conditions: TR-FRET SMARCA2BD EC50, TR-FRET competition for SMARCA2BD, without VCB; mean ± SD
Quantity name: EC50 (nM)
Please state the figure in nM; there is no need to write the unit.

Prompt line: Entry O=c1nc2n(C3CCCC3)c3cc(C4CCNCC4)ccc3n2c2cccc(Br)c12 : reported EC50 = ?
Response line: 88

---

- Assay summary: Solubility testing
- Assay type: physicochemical
- Protocol conditions: buffer, pH 6.8, aqueous buffer, kinetic from dmso stock, pH 6.8; read-out: Solubility pH 6.8
Reported solubility at 24 h values for the following compounds.

Sample answers from the record:
Compound	solubility at 24 h
Cc1ncsc1-c1ccc([C@H](COC(C)CN2CCC(c3ccc4c(c3)n(C3CCCC3)c3nc(=O)c5c(Br)cccc5n43)CC2)NC(=O)[C@@H]2C[C@@H](O)CN2C(=O)[C@@H](NC(=O)C2(F)CC2)C(C)(C)C)cc1 (stereo partly shown) [compound 9]	< 1 µg/mL
O=c1nc2n(C3CCCC3)c3cc(C4CCNCC4)ccc3n2c2cccc(Br)c12 [compound 4]	79 µg/mL
CN1CCC(c2ccc3c(c2)n(C2CCCC2)c2nc(=O)c4c(Br)cccc4n32)CC1 [compound 3]	> 100 µg/mL
Cc1ncsc1-c1ccc([C@H](COCCN2CCC(c3ccc4c(c3)n(C3CCCC3)c3nc(=O)c5c(Br)cccc5n43)CC2)NC(=O)[C@@H]2C[C@@H](O)CN2C(=O)[C@@H](NC(=O)C2(N(C)C)CC2)C(C)(C)C)cc1 [compound 26]	< 1 µg/mL
Cc1ncsc1-c1ccc([C@H](CC[C@H](C)CCN2CCC(c3ccc4c(c3)n(C3CCCC3)c3nc(=O)c5c(Br)cccc5n43)CC2)NC(=O)[C@@H]2C[C@H](O)CN2C(=O)[C@@H](NC(=O)C2(F)CC2)C(C)(C)C)cc1 [compound 12]	< 1 µg/mL
Nc1cccc2c1c(=O)nc1n(C3CCCC3)c3ccccc3n21 [compound 2]	< 1 µg/mL
Cc1ncsc1-c1ccc([C@H](CCCCCN2CCC(c3ccc4c(c3)n(C3CCCC3)c3nc(=O)c5c(Br)cccc5n43)CC2)NC(=O)[C@@H]2C[C@@H](O)CN2C(=O)[C@@H](NC(=O)C2(F)CC2)C(C)(C)C)cc1 [compound 11]	< 1 µg/mL
O=c1nc2n(C3CCCC3)c3ccccc3n2c2cccc(Br)c12 [compound 1]	< 1 µg/mL

Prompt line: Entry Cc1ncsc1-c1ccc(C(CCC(C)CCN2CCC(c3ccc4c(c3)n(C3CCCC3)c3nc(=O)c5c(Br)cccc5n43)CC2)NC(=O)C2CC(O)CN2C(=O)C(NC(=O)C2(F)CC2)C(C)(C)C)cc1 (stereo not shown) [ACBI2] : reported solubility at 24 h = ?
Response line: < 1 µg/mL

Prompt line: Entry Cc1ncsc1-c1ccc([C@H](COC(C)CN2CCC(c3ccc4c(c3)n(C3CCCC3)c3nc(=O)c5c(Br)cccc5n43)CC2)NC(=O)[C@@H]2C[C@@H](O)CN2C(=O)[C@@H](NC(=O)C2(N(C)C)CC2)C(C)(C)C)cc1 (stereo partly shown) [compound 10] : reported solubility at 24 h = ?
Response line: < 1 µg/mL

---

- Assay summary: Pharmacokinetic analyses in mouse
- Format: in vivo
- Protocol conditions: mouse, plasma, po, 30 mg/kg, mouse, 30 mg/kg p.o., NCA, individual animals; read-out: F
Quantity name: bioavailability (%)
Please state the figure in %; there is no need to write the unit.

Prompt line: Entry Cc1ncsc1-c1ccc(C(CCC(C)CCN2CCC(c3ccc4c(c3)n(C3CCCC3)c3nc(=O)c5c(Br)cccc5n43)CC2)NC(=O)C2CC(O)CN2C(=O)C(NC(=O)C2(F)CC2)C(C)(C)C)cc1 (stereo not shown) : reported bioavailability = ?
Response line: 21.5

---

- Assay summary: Cell viability assay (CellTiter Glo) in a panel of cell lines;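 note: percent of DMSO-treated control cells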
- Format: cell-based, human
- Protocol conditions: human, LXFL 1121L cells, LXFL_1121L; log10 conc -6 mol/l
Quantity name: viability at 1 µM (%)
Please state the figure in %; there is no need to write the unit.

Prompt line: Entry Cc1ncsc1-c1ccc(C(CCC(C)CCN2CCC(c3ccc4c(c3)n(C3CCCC3)c3nc(=O)c5c(Br)cccc5n43)CC2)NC(=O)C2CC(O)CN2C(=O)C(NC(=O)C2(F)CC2)C(C)(C)C)cc1 (stereo not shown) [ACBI2] : reported viability at 1 µM = ?
Response line: 90.4

---

- Tgt: VCB: PROTAC: SMARCA4^BD ternary complex (Homo sapiens, UniProt P40337+P51532)
- Sequence (P40337 54-213, one chain of several): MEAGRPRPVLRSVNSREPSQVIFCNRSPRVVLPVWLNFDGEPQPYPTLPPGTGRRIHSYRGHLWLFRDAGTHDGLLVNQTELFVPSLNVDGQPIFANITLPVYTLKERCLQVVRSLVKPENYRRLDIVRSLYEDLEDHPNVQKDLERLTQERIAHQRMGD
- Sequence (Q15369 17-112 partner limits assumed, one chain of several): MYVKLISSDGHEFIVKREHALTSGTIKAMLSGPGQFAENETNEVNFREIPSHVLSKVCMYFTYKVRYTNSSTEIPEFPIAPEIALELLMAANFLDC
- Sequence (Q15370 1-104 partner limits assumed, one chain of several): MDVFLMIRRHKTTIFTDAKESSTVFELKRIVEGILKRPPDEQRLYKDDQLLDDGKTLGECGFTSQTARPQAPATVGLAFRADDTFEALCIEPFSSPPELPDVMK
- Assay summary: SPR ternary complex measurement, VCB immobilised, 10 µM SMARCA4^BD present
- Type: binding
- Set-up: P51532, residues 1448–1569 with additional N-terminal SM residues; His6 (TEV site) (N, cleaved yes); GST (TEV site) (N, cleaved yes); made in house; host or cells: SMARCA4^BD: Escherichia coli BL21(DE3)
- Protocol conditions: cooperativity, SMARCA4; ratio of KD values measured in the same run
Quantity name: alpha
Please give only the number in your answer, with no unit.

Molecule	Observed result
Cc1ncsc1-c1ccc([C@H](CCCCN2CCC(c3ccc4c(c3)n(C3CCCC3)c3nc(=O)c5c(Br)cccc5n43)CC2)NC(=O)[C@@H]2C[C@@H](O)CN2C(=O)[C@@H](NC(=O)C2(F)CC2)C(C)(C)C)cc1 [compound 25]	0.4

Prompt line: Entry Cc1ncsc1-c1ccc(CNC(=O)[C@@H]2C[C@@H](O)CN2C(=O)[C@@H](NC(=O)C2(F)CC2)C(C)(C)C)c(OCCOCCOCCN2CCC(c3ccc4c(c3)n(C3CCCC3)c3nc(=O)c5c(Br)cccc5n43)CC2)c1 [compound 21] : reported alpha = ?
Response line: 1.3

---

Reported DC50 values for the following molecules.
- Tgt: SMARCA2 (Homo sapiens)
- Sequence (P51531 whole entry): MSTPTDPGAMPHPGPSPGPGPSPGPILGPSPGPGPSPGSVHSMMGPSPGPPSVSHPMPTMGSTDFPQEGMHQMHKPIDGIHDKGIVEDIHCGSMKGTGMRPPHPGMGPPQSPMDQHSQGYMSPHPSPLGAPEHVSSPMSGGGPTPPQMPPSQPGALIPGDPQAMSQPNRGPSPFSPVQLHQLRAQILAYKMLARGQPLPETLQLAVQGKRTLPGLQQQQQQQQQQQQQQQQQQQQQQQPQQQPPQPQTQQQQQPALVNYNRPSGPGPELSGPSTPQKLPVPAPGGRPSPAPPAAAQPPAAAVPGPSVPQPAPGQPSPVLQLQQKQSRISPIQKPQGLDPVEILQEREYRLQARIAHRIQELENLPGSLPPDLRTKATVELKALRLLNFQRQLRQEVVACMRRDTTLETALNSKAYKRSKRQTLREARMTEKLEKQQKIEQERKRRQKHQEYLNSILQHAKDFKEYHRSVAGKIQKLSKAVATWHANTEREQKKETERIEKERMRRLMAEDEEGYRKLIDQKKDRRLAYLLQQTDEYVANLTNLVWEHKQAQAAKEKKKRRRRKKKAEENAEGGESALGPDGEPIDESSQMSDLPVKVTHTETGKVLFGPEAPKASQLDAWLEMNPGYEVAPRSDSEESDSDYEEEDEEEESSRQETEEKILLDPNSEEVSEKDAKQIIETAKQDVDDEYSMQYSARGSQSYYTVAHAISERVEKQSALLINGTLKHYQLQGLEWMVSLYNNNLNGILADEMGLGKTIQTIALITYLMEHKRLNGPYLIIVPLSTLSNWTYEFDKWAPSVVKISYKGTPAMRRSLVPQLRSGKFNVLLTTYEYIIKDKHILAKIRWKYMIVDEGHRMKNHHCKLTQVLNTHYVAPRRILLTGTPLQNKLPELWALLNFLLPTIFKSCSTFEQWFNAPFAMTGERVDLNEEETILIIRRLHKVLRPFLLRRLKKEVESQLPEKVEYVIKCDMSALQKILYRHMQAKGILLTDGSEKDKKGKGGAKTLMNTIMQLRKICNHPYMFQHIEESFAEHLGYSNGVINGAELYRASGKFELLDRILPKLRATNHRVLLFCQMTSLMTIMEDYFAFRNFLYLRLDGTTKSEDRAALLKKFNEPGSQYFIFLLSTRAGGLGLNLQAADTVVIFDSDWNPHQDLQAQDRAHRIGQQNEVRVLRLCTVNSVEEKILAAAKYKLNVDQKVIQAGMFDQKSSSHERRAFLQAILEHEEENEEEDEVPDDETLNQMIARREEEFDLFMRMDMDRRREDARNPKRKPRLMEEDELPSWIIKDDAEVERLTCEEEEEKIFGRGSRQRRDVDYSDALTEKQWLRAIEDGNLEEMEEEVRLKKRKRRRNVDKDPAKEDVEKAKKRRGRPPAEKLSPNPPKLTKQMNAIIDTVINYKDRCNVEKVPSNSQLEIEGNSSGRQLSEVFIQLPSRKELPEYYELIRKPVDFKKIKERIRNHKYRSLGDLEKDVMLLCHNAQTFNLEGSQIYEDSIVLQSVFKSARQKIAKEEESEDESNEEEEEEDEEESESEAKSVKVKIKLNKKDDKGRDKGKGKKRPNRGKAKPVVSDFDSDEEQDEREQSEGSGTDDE
- Assay summary: SMARCA2 capillary electrophoresis protein assay in RKO cells
- Type: cell-based
- Set-up: endogenous in cells; host or cells: RKO, NCI-H1568, A549, HCT116, LU99, HCC-364, HCT-15, HCC4006, SK-N-AS
- Protocol conditions: RKO (18 h); mean ± SD

Sample answers from the record:
Molecule	DC50
CN1CCN(c2nc(=O)c3c(Cl)cccc3o2)CC1 [compound 13]	> 25 µM
CN1CCN(c2nc(=O)c3c(I)cccc3o2)CC1 [compound 16]	> 25 µM
CN1CCC(c2ccc3c(c2)n(C2CCCC2)c2nc(=O)c4c(Br)cccc4n32)CC1 [compound 3]	22.3 µM
O=c1nc2n(C3CCCC3)c3ccccc3n2c2cccc(Br)c12 [compound 1]	> 25 µM

Prompt line: Entry Cc1ncsc1-c1ccc([C@H](COCCN2CCC(c3ccc4c(c3)n(C3CCCC3)c3nc(=O)c5c(Br)cccc5n43)CC2)NC(=O)[C@@H]2C[C@@H](O)CN2C(=O)[C@@H](NC(=O)C2(N(C)C)CC2)C(C)(C)C)cc1 [compound 26] : reported DC50 = ?
Response line: 0.006 µM

Prompt line: Entry Cc1ncsc1-c1ccc(CNC(=O)[C@@H]2C[C@H](O)CN2C(=O)[C@@H](NC(=O)C2(F)CC2)C(C)(C)C)c(OCCN2CCC(c3ccc4c(c3)n(C3CCCC3)c3nc(=O)c5c(Br)cccc5n43)CC2)c1 [compound 19] : reported DC50 = ?
Response line: > 25 µM

Prompt line: Entry CN1CCN(c2nc(=O)c3c(Br)cccc3o2)CC1 [compound 15] : reported DC50 = ?
Response line: > 25 µM

---

Reported log10 of Kd values for the following compounds.
- Tgt: SMARCA4^BD (Homo sapiens, UniProt P51532)
- Construct: P51532, residues 1448–1569 with additional N-terminal SM residues; GST (TEV site) (N, cleaved yes); made in house; host or cells: Escherichia coli BL21(DE3); construct from SGC Toronto
- Sequence (P51532 1448-1569): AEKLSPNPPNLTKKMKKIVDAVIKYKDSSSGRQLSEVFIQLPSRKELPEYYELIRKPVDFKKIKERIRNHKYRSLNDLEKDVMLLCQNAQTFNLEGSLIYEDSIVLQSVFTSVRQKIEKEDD
- Assay summary: SPR binding to immobilised SMARCA4 bromodomain
- Protocol conditions: SMARCA4BD, mean ± SD
A difference of one corresponds to tenfold Kd; all values are log10 with Kd in nM.

Sample answers from the record:
Compound	Quantity name	Observed result
Nc1cccc2c1c(=O)nc1n(C3CCCC3)c3ccccc3n21 [compound 2]	log10 of Kd	3.44
Cc1ncsc1-c1ccc([C@H](COCCCN2CCC(c3ccc4c(c3)n(C3CCCC3)c3nc(=O)c5c(Br)cccc5n43)CC2)NC(=O)[C@@H]2C[C@@H](O)CN2C(=O)[C@@H](NC(=O)C2(F)CC2)C(C)(C)C)cc1 [compound 27]	log10 of Kd	2.59
Cc1ncsc1-c1ccc(CNC(=O)[C@@H]2C[C@@H](O)CN2C(=O)[C@@H](NC(=O)C2(F)CC2)C(C)(C)C)c(OCCOCCOCCN2CCC(c3ccc4c(c3)n(C3CCCC3)c3nc(=O)c5c(Br)cccc5n43)CC2)c1 [compound 21]	log10 of Kd	2.94
CN1CCN(c2nc(=O)c3c(Br)cccc3o2)CC1 [compound 15]	log10 of Kd	4.08
Cc1ncsc1-c1ccc([C@H](CCCCCN2CCC(c3ccc4c(c3)n(C3CCCC3)c3nc(=O)c5c(Br)cccc5n43)CC2)NC(=O)[C@@H]2C[C@@H](O)CN2C(=O)[C@@H](NC(=O)C2(F)CC2)C(C)(C)C)cc1 [compound 11]	log10 of Kd	2.47

Prompt line: Entry CN1CCC(c2ccc3c(c2)n(C2CCCC2)c2nc(=O)c4c(Br)cccc4n32)CC1 [compound 3] : reported log10 of Kd = ?
Response line: 1.76

Prompt line: Entry Cc1ncsc1-c1ccc([C@H](CC[C@H](C)CCN2CCC(c3ccc4c(c3)n(C3CCCC3)c3nc(=O)c5c(Br)cccc5n43)CC2)NC(=O)[C@@H]2C[C@H](O)CN2C(=O)[C@@H](NC(=O)C2(F)CC2)C(C)(C)C)cc1 [compound 12] : reported log10 of Kd = ?
Response line: 2.56

Prompt line: Entry Cc1ncsc1-c1ccc(C(CCC(C)CCN2CCC(c3ccc4c(c3)n(C3CCCC3)c3nc(=O)c5c(Br)cccc5n43)CC2)NC(=O)C2CC(O)CN2C(=O)C(NC(=O)C2(F)CC2)C(C)(C)C)cc1 (stereo not drawn) [ACBI2] : reported log10 of Kd = ?
Response line: 2.50

Prompt line: Entry Cc1ncsc1-c1ccc([C@H](COC(C)CN2CCC(c3ccc4c(c3)n(C3CCCC3)c3nc(=O)c5c(Br)cccc5n43)CC2)NC(=O)[C@@H]2C[C@@H](O)CN2C(=O)[C@@H](NC(=O)C2(F)CC2)C(C)(C)C)cc1 (stereo partly drawn) [compound 9] : reported log10 of Kd = ?
Response line: 2.70
